All figures here come from patent US20240425569A1.

# measured_target: T1, EDIII-DV3 (E protein domain III of dengue virus serotype DV-3) (dengue virus serotype DV-3, UniProt P27915 571-678)
# T1 construct: also called DENV-3; EDIII of DV-3
# T1 sequence (P27915 571-678, tags left off): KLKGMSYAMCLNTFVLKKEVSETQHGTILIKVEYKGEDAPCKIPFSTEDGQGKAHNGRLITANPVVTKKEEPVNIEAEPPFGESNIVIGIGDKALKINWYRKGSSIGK
assay_endpoint: Kd (nM)
Respond numerically; units are nM and should not be typed.

Need Kd of antibody C88 (antibody, V domains shown) VH: QVQLVQSGAEVKKPGASVKVSCKASGFNIKDVYMSWVRQAPEQGLEWMGRIDPENGDTKYDPKLQGRVTMTADTSTNTAYMELRSLRSDDTAVYYCARGWEGFAYWGQGTLVTVSS VL: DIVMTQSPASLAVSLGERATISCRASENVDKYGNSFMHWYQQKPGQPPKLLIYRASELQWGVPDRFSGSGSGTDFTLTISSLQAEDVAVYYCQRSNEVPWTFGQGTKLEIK , thanks.
0.97

Next item in the queue.
Need Kd of C128 (antibody, V domains shown) VH: QVQLVQSGAEVKKPGASVKVSCKASGFNIKDVYMSWVRQAPEQGLEWMGRIDPENGDTKYDPKLQGRVTMTADTSTNTAYMELRSLRSDDTAVYYCSRGWEGFAYWGQGTLVTVSS VL: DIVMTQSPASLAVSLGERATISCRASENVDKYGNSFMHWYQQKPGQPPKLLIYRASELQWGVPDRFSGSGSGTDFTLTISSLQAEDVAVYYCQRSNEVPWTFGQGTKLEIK , thanks.
0.63
